Can you tell me ED50 for the items I'm about to list?
tested on: Staphylococcus aureus; assay: Antimicrobial activity against Staphylococcus aureus Smith infected in iv dosed septicaemia Swiss albino mouse model after 4 days; format: functional; settings: 96 h

| structure_string | ED50 |
| --- | --- |
| COc1cc(O)c2c(c1Br)C(=O)OCCCCC(=S)N[C@H](c1nc(C)no1)CSC2 | > 25 mg/kg |

Go through the items and report each one's ED50.
1. COc1cc(O)c2c(c1C)C(=O)OCC(=S)NCC(=O)N[C@H](c1nc(C)no1)CSC2
2. COc1cc(O)c2c(c1C)C(=O)OC[C@@H](CO)CCC(=S)N[C@H](c1nc(C)no1)CSC2
3. COc1cc(O)c2c(c1Br)C(=O)O[C@H](C)C(=O)NCC(=S)N[C@H](c1nc(C)no1)CSC2

A:
["> 25 mg/kg", "> 25 mg/kg", "> 12.5 mg/kg"]

Go through the items and report each one's ED50.
1. COc1cc(O)c2c(c1Br)C(=O)OCCNCC(=S)N[C@H](c1nc(C)no1)CSC2.Cl
2. COc1cc(O)c2c(c1Br)C(=O)OCCN(C)CC(=O)N[C@H](c1nc(C)no1)CSC2.Cl

A:
> 25 mg/kg
> 25 mg/kg
